Property: IC50, huKv1.3 current, QPatch patch clamp; scope: individual binders
Target: human Kv1.3 (human) (UniProt P22001)
Sequence (P22001 whole entry): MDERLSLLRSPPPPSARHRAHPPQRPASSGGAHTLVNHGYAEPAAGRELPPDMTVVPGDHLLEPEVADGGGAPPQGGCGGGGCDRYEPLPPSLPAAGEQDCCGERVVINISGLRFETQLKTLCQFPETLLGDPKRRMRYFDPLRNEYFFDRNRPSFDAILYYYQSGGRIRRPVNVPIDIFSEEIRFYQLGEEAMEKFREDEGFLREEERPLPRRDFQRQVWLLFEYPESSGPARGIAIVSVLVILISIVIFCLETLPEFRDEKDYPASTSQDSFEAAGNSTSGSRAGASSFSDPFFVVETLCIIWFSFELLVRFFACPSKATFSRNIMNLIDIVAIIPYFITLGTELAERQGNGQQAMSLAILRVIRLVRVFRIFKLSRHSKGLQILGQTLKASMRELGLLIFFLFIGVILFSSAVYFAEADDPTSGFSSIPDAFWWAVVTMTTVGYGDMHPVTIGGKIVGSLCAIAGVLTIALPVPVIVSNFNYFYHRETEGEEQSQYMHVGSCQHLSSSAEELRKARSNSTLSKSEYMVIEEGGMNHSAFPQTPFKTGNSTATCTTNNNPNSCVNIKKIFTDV
Experiment: cell-based or functional assay
property: IC50, huKv1.3 current, QPatch patch clamp (nM)

binder: KB_A12_AnTx-N17A/F32T (antibody, V domains shown) VH: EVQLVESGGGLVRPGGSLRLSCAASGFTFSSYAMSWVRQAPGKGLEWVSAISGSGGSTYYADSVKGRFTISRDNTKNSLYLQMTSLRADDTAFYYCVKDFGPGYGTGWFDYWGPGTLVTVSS VL: QSVLTQPPSVSEAPRQRVTITCSGSSSNIGNNAVNWYQQLPGKAPKLLIYAAGRQKECTGPQHCTNFCRKAKCTHGKCMNRKCKCTNCKANSGVSDRFSAAKSGTSASLAINGLRSEDEADYYCAAWDDSLNGYVFGTGTKLTVLG
assay_result: 85

binder: KB_A12_ADWX1 (antibody, V domains shown) VH: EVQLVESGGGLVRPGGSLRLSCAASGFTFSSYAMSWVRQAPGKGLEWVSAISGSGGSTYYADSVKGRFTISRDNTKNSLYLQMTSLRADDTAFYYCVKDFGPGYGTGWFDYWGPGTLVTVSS VL: QSVLTQPPSVSEAPRQRVTITCSGSSSNIGNNAVNWYQQLPGKAPKLLIYAAGRVGINVKCKHSRQCLKPCKDAGMRFGKCTNGKCHCTPKANSGVSDRFSAAKSGTSASLAINGLRSEDEADYYCAAWDDSLNGYVFGTGTKLTVLG
assay_result: 270

binder: KB_A12_Vm24 (antibody, V domains shown) VH: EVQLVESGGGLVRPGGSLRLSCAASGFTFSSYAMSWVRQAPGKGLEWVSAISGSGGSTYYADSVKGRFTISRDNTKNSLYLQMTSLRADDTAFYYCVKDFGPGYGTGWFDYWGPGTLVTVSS VL: QSVLTQPPSVSEAPRQRVTITCSGSSSNIGNNAVNWYQQLPGKAPKLLIYAAGRAAAISCVGSPECPPKCRAQGCKNGKCMNRKCKCYYCANSGVSDRFSAAKSGTSASLAINGLRSEDEADYYCAAWDDSLNGYVFGTGTKLTVLG
assay_result: 16

binder: KB_A12_ShK (antibody, V domains shown) VH: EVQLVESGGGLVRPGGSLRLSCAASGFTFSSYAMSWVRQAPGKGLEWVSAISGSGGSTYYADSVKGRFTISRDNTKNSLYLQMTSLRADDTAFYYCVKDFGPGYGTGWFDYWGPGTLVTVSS VL: NWYQQLPGKAPKLLIYAAGRRSCIDTIPKSRCTAFQCKHSMKYRLSFCRKTCGTCANSGVSDRFSAAKSGTSASLAINGLRSEDEADYYCAAWDDSLNGYVFGTGTKLTVLG
assay_result: 8.6

binder: KB_A12_ADWX1 short (antibody, V domains shown) VH: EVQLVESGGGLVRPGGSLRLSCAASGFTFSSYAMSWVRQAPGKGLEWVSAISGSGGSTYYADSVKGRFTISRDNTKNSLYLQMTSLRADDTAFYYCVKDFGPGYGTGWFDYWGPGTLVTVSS VL: NWYQQLPGKAPKLLIYAAGRVKCKHSRQCLKPCKDAGMRFGKCTNGKCHCTPKANSGVSDRFSAAKSGTSASLAINGLRSEDEADYYCAAWDDSLNGYVFGTGTKLTVLG
assay_result: 170
